Target: HBcAg (Hepatitis B virus genotype D subtype ayw)
Sequence (P03146 whole entry): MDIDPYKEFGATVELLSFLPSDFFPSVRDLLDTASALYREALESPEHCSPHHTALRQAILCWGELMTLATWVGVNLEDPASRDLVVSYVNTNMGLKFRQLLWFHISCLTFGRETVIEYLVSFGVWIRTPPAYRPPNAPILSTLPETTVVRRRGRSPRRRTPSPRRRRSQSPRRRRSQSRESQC
Conditions: HBcAg added at 5 μg/ml
From the text: One approach to rational drug design involves sequential amino acid deletion of a known binding partner starting from either the amino or carboxy termini. Amino-terminal deletions of the binding partners of SEQ. ID. Nos. 5 and 17 were made and these peptide fragments were joined to a support and analyzed for the ability to bind HBcAg. […] ID. […] The amino-terminal deletions of the peptide of SEQ. ID. […] The amino-terminal deletion products of the peptide of SEQ. ID. […] ID. […]
Would you mind sorting the entries by OD at 490 nm, HBcAg binding to support-bound amino terminal deletion peptides according to these classes? band 1 = under 0.3, band 2 = from 0.3 up to 0.6, band 3 = 0.6 and over

The following substances have reported results that may help.
- Substance: "SQSVSTSSYSYMHWY [SEQ. ID. No. 57]"
  Qualitative Label: "band 2"
- Substance: "CKASGYIFTS [SEQ. ID. No. 48]"
  Qualitative Label: "band 1"
- Substance: "SGYIFTS [SEQ. ID. No. 51]"
  Qualitative Label: "band 2"

Now look at this one.
**Q:** Category of SVKLSCKASGYIFTS [SEQ. ID. No. 43] , please.
**A:** band 3
